System: MCF7 breast
Test: NCI-60 one-dose screen, 48 h (100 = growth as untreated, 0 = no growth, -100 = all killed)
Conditions: 10 µM unless noted
Compounds without any hit were thinned out: in the full panel of roughly 83,000, 20% have a hit.
Give measured growth for each item. Keep answers brief.
Answers are plain numbers, in %.

Take a look at these entries with their results.
Cc1cc(NCc2cc(Nc3ccnc4cc(Cl)ccc34)ccc2F)nc(N2CCN(c3ccccc3)CC2)n1 ... 23.9
CNC(=O)c1cc(Oc2cccc3nc(Nc4ccc(F)c(Cl)c4)ccc23)ccn1 ... 35.1
O=C1/C(=C/c2ccc(Br)cc2)C=C(c2ccccc2)N1CCc1ccccc1 ... 55.2
CC(=O)O[C@]1(C(C)=O)CCC2C3C[C@H](C)C4=CC(=O)CC[C@]4(C)C3CC[C@@]21C (stereo not given in full) ... 90.1

Turning to the following molecule.
# molecule `CN(Cc1cnc2nc(N)nc(N)c2n1)c1ccc(C(=O)N[C@@H](CCc2nn[nH]n2)c2nn[nH]n2)cc1` ; its growth = 17

The reported numbers originate from PubChem BioAssay (NCI).
